molecular target: human NMUR2 (human, UniProt Q9GZQ4 1-415); test: cell-based or functional assay
Sequence (Q9GZQ4 whole entry): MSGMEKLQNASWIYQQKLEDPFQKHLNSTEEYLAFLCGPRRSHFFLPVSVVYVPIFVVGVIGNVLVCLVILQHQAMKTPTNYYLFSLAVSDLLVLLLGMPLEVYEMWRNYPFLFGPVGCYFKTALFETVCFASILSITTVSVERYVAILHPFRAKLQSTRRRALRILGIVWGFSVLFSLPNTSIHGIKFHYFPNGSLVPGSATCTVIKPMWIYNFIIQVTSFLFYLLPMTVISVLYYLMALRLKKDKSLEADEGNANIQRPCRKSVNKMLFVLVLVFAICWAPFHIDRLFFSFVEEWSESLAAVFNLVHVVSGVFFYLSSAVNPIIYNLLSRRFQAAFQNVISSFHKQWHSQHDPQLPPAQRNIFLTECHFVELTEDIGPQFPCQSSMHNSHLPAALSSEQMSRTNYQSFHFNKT
No end group written: not given here. *: point of attachment. (PEG)2 40 kDa = branched PEG of 40 kDa linked via the Cys side-chain thiol (code C2 = Cys(PEG)2 40 kDa); Cholesteroyl = cholesterol linked to a cysteine residue via the side-chain thiol; Palmitoyl = CCCCCCCCCCCCCCCC(=O)*
Measured Parameter: % Activity (FLIPR) (%)

1) Ac-C(Cholesteroyl)GYFLFRPRN-NH2 [NMU11] :: 37.3
2) Ac-C((PEG)2 40 kDa)GYFLFRPRN-NH2 [NMU7] :: 91.8
3) Ac-C(PEG 20 kDa)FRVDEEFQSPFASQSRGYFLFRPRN-NH2 [NMU21] :: 97.9
4) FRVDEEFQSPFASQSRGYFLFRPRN-NH2 (not fully specified (N-terminus)) [NMU1] :: 85
5) Ac-C(PEG 20 kDa)C(PEG 20 kDa)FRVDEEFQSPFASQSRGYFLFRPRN-NH2 [NMU23] :: 71.7
6) Palmitoyl-C((PEG)2 40 kDa)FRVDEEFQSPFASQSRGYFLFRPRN-NH2 [NMU25] :: 98.8
7) Ac-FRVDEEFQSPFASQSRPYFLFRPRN-NH2 [NMU5] :: 98.1
8) Ac-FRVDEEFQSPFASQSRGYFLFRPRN-NH2 [NMU2] :: 97.4
9) Ac-C(Cholesteroyl)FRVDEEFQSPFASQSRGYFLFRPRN-NH2 [NMU10] :: 31.3

All values here come from patent US20070244048A1.
